# experimental target: Neu5Ac(a2-3)Gal(b1-4)GlcNAc(b1-3)Gal(b1-4)[Fuc(a1-3)]GlcNAc
# method summary: glycan array binding signal (z-score within array); higher = stronger binding
# condition: glycan notation: IUPAC condensed, linker removed
This excerpt belongs to a sample that is enriched for the strongest signals.
Please note: rule met applies when glycan array binding signal (z-score) is -0.6 or greater, and rule not met applies otherwise.

| binder | group label |
| --- | --- |
| PEB3 (Campylobacter jejuni), Q0PBL7 (protein) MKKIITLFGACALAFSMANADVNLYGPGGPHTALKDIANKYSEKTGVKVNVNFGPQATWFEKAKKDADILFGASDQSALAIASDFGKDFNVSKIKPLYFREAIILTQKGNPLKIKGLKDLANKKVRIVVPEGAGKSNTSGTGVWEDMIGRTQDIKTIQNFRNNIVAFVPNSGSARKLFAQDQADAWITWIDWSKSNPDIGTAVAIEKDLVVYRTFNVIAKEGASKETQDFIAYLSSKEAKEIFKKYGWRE | rule met |
| PEB1 (Campylobacter jejuni), Q0P9X8 (protein) MVFRKSLLKLAVFALGACVAFSNANAAEGKLESIKSKGQLIVGVKNDVPHYALLDQATGEIKGFEVDVAKLLAKSILGDDKKIKLVAVNAKTRGPLLDNGSVDAVIATFTITPERKRIYNFSEPYYQDAIGLLVLKEKKYKSLADMKGANIGVAQAATTKKAIGEAAKKIGIDVKFSEFPDYPSIKAALDAKRVDAFSVDKSILLGYVDDKSEILPDSFEPQSYGIVTKKDDPAFAKYVDDFVKEHKNEIDALAKKWGL | rule not met |
| Aap arpt (Staphylococcus epidermidis) (protein) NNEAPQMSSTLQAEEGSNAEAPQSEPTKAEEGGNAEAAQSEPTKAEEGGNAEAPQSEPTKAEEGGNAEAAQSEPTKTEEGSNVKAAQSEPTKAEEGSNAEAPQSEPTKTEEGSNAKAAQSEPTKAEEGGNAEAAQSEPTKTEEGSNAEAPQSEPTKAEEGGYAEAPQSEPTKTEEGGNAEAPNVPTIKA | rule met |
| HA-11100 (Pseudomonas aeruginosa), Q02G51_PSEAB (protein) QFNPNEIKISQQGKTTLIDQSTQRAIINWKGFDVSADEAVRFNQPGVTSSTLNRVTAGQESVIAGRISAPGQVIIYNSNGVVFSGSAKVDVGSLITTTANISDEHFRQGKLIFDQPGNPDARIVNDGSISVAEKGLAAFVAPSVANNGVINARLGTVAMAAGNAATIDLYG | rule not met |
| SSA (Sclerotinia sclerotiorum), A7XUK7 (protein) MGFKGVGTYEIVPYQAPSLNLNAWEGKLEPGAVVRTYTRGDKPSDNAKWQVALVAGSGDSAEYLIINVHSGYFLTATKENHIVSTPQISPTDPSARWTIKPATTHQYEVFTINNKVSELGQLTVKDYSTHSGADVLSASAKTADNQKWYFDAK | rule met |
| Protein L(B1-B4) (Finegoldia magna), Q51912 (protein) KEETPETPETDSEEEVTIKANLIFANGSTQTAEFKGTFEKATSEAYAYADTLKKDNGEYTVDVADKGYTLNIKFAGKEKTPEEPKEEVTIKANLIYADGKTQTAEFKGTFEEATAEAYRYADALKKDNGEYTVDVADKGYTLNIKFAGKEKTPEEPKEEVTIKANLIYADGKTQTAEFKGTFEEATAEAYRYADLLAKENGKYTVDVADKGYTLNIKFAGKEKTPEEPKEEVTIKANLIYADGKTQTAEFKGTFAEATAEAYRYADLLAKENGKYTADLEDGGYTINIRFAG | rule met |

Okay, next one:
Ask: # check: glycan array binding signal (z-score) of Epa19 (Candida glabrata) (protein) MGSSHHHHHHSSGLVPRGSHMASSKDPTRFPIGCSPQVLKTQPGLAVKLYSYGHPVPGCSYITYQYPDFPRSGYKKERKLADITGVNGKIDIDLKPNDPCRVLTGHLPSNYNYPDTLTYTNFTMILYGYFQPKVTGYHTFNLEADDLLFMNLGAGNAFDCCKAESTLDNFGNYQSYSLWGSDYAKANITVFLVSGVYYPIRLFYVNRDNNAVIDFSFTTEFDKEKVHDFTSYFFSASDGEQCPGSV is greater than or equal to -0.6
Reply: rule not met
